- measured-target: Prostaglandin E synthase (Canis lupus familiaris)
- Sequence (A0SYQ0 whole entry): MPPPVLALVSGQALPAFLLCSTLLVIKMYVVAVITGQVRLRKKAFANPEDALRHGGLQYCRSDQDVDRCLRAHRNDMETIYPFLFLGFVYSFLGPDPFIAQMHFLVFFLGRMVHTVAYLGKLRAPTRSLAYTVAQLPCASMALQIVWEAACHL
- protocol: Inhibition of mPGES1 in LPS-induced dog whole blood assessed as suppression of PGE2 response pre-incubated for 30 mins followed by LPS addition and measured after 5 hrs by LC-MS/MS analysis
pIC50: −log10 of the molar value.
Each entry below carries its reported pIC50.
assay-endpoint: pIC50

INSERT INTO assay_data (entry_smiles, measured_target, value_measured) VALUES
  ('Cc1nc(NC(=O)c2cc(CNC(=O)C(C)C)cnc2C(F)F)[nH]c1-c1ccc(C(F)(F)F)cc1', 'Prostaglandin E synthase (Canis lupus familiaris)', 6.86),
  ('CC(C)(C)C(=O)NCc1ccc(Cl)c(C(=O)Nc2ncc[nH]2)c1', 'Prostaglandin E synthase (Canis lupus familiaris)', 6.26);
